Tested on: PANC-1
EXPERIMENT: Cytotoxicity against human PANC1 cells after 48 hrs by SRB assay
Assay type: functional
MEASUREMENT_PARAMETERS: PANC-1, 48 h
MEASUREMENT_TYPE: TGI (µM)

[[record]]
chem_smiles = "C/C=C1\\NC(=O)[C@H](Cc2ccc(F)cc2)NC(=O)[C@@H](C(C)C)NC(=O)[C@@H]([C@H](C)CC)NC(=O)[C@H](NC(=O)[C@H](NC(=O)[C@H](CCCN)NC(=O)[C@H]2CCCN2C(=O)[C@H](NC(=O)[C@@H](NC(=O)[C@@H](NC(=O)[C@H](NC(=O)CC[C@@H](C)CC)C(C)C)[C@@H](C)O)C(C)C)C(C)C)[C@H](C)CC)[C@H](C)OC(=O)[C@H](C(C)C)NC1=O"
measurement_type = "TGI"
measured_result = 1.53

[[record]]
chem_smiles = "C/C=C1\\NC(=O)[C@H](Cc2ccccc2)NC(=O)[C@@H](C(C)C)NC(=O)[C@@H]([C@H](C)CC)NC(=O)[C@H](NC(=O)[C@H](NC(=O)[C@H](CCCN)NC(=O)[C@H]2CCCN2C(=O)[C@H](NC(=O)[C@@H](NC(=O)[C@@H](NC(=O)[C@@H](CCC(N)=O)NC(=O)CCCC(C)C)[C@@H](C)O)C(C)C)C(C)C)[C@H](C)CC)[C@H](C)OC(=O)[C@H](C(C)C)NC1=O"
measurement_type = "TGI"
measured_result = 0.222

[[record]]
chem_smiles = "C/C=C1\\NC(=O)[C@H](Cc2ccccc2)NC(=O)[C@@H](C(C)C)NC(=O)[C@@H]([C@H](C)CC)NC(=O)[C@H](NC(=O)[C@H](NC(=O)[C@H](CCCN)NC(=O)[C@H]2CCCN2C(=O)[C@H](NC(=O)[C@@H](NC(=O)[C@@H](NC(=O)[C@H](NC(=O)CC[C@@H](C)[C@H]2CC[C@H]3[C@@H]4CC[C@@H]5C[C@H](O)CC[C@]5(C)[C@H]4CC[C@]23C)C(C)C)[C@@H](C)O)C(C)C)C(C)C)[C@H](C)CC)[C@H](C)OC(=O)[C@H](C(C)C)NC1=O"
measurement_type = "TGI"
measured_result = 9.72

[[record]]
chem_smiles = "CC[C@@H](C)[C@@H](NC(=O)[C@H](CCCN)NC(=O)[C@H]1CCCN1C(=O)[C@H](NC(=O)[C@@H](NC(=O)[C@@H](NC(=O)[C@H](NC(=O)CCCC(C)C)C(C)C)[C@@H](C)O)C(C)C)C(C)C)C(=O)N[C@H]1C(=O)N[C@H]([C@H](C)CC)C(=O)N[C@H](C(C)C)C(=O)N[C@@H](Cc2ccccc2)C(=O)N/C(=C\\c2ccccc2)C(=O)N[C@@H](C(C)C)C(=O)O[C@H]1C"
measurement_type = "TGI"
measured_result = 4.45

[[record]]
chem_smiles = "C/C=C1\\NC(=O)[C@H](Cc2cccc(Cl)c2)NC(=O)[C@@H](C(C)C)NC(=O)[C@@H]([C@H](C)CC)NC(=O)[C@H](NC(=O)[C@H](NC(=O)[C@H](CCCN)NC(=O)[C@H]2CCCN2C(=O)[C@H](NC(=O)[C@@H](NC(=O)[C@@H](NC(=O)[C@H](NC(=O)CCCC(C)C)C(C)C)[C@@H](C)O)C(C)C)C(C)C)[C@H](C)CC)[C@H](C)OC(=O)[C@H](C(C)C)NC1=O"
measurement_type = "TGI"
measured_result = 1.7

[[record]]
chem_smiles = "CC[C@@H](C)[C@@H](NC(=O)[C@H](CCCN)NC(=O)[C@H]1CCCN1C(=O)[C@H](NC(=O)[C@@H](NC(=O)[C@@H](NC(=O)[C@H](NC(=O)CCCC(C)C)C(C)C)[C@@H](C)O)C(C)C)C(C)C)C(=O)N[C@H]1C(=O)N[C@H]([C@H](C)CC)C(=O)N[C@H](C(C)C)C(=O)N[C@@H](Cc2ccccc2)C(=O)N[C@H](CC)C(=O)N[C@@H](C(C)C)C(=O)O[C@H]1C"
measurement_type = "TGI"
measured_result = 4.98

